B1: TFE3 (parent)
chain: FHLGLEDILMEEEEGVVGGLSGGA

variants of: B1; assay: protein stability index of a GFP-peptide fusion (GPS, HEK-293T) (PSI 1-6); higher = more stable; conditions: c terminus: a fixed tail appended;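 also: lentivirally expressed fusions sorted by FACS into six bins by GFP to DsRed ratio, PSI derived from sequencing read proportions per bin multiplied by bin number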
Measured parameter: protein stability index
Keep it simple and answer with nothing but the number.

## Input Given the entry D7T , report its measured protein stability index.
## Output 3

## Input V16P , same question.
## Output 3.08

## Input L20E , same question.
## Output 4.99

## Input E12R , same question.
## Output 2.47

## Input L5Y , same question.
## Output 3.21

## Input A24Y , same question.
## Output 2.68

## Input G23N , same question.
## Output 3.96

## Input G23K , same question.
## Output 3.89

## Input S21Y , same question.
## Output 2.77

## Input L9A , same question.
## Output 4.22

## Input G15Y , same question.
## Output 3.04

## Input E11G , same question.
## Output 2.61

## Input G15M , same question.
## Output 3.05

## Input E12N , same question.
## Output 3.01
